# test.summary: Dissociation constant, pKa of the compound
# Format: physicochemical
# pKa per record follows
# output: bare number, no unit

// solved cases for pKa follow
Ask: Identify measured pKa associated with O=C(Nc1ccc(C2CCCCC2)cc1)C1=C(O)C(CCc2ccccc2)NC1=O (stereo not given)
Reply: 3

Ask: Identify measured pKa associated with O=C(Nc1ccc(N2CCCCC2)cc1)C1=C(O)C(CCc2ccccc2)NC1=O (stereo not given)
Reply: 3

Ask: Identify measured pKa associated with O=C(Nc1ccc(C2CCCCC2)cc1)C1=C(O)CC(C2CCCCC2)NC1=O (stereo not given)
Reply: 6.5

Would you kindly look at the next entry?
Ask: Identify measured pKa associated with O=C(Nc1ccc(C2CCCCC2)cc1)C1=C(O)CC(Cc2ccccc2)NC1=O (stereo not given)
Reply: 6.5

---

# pKa per record follows
# test.summary: Dissociation constant, pKa of the compound
# Type: physicochemical
# output: bare number, no unit

// solved cases for pKa follow
Ask: Identify measured pKa associated with O=C(NC1CCCCC1)C1=C(O)C(CCc2ccccc2)NC1=O (stereo unspecified)
Reply: 3

Ask: Identify measured pKa associated with O=C(Nc1ccc(-c2ccccc2)cc1)C1=C(O)C(CCc2ccccc2)NC1=O (stereo unspecified)
Reply: 3

Ask: Identify measured pKa associated with `O=C(Nc1ccc(C2CCCCC2)cc1)C1=C(O)CN(Cc2ccccc2)C1=O`
Reply: 3

Ask: Identify measured pKa associated with O=C(Nc1ccc(C2CCCCC2)cc1)C1=C(O)C(c2ccccc2)NC1=O (stereo unspecified)
Reply: 3

Ask: Identify measured pKa associated with O=C(Nc1ccc(F)cc1)C1=C(O)C(CCc2ccccc2)NC1=O (stereo unspecified)
Reply: 3

Ask: Identify measured pKa associated with O=C(Nc1ccc(C2CCCCC2)cc1)C1=C(O)C(Cc2ccccc2)NC1=O (stereo unspecified)
Reply: 3

Ask: Identify measured pKa associated with `O=C1NCC(O)=C1C(=O)Nc1ccc(C2CCCCC2)cc1`
Reply: 3

Ask: Identify measured pKa associated with O=C(Nc1ccc(Nc2ccccc2)cc1)C1=C(O)CC(Cc2ccccc2)NC1=O (stereo unspecified)
Reply: 6.5

Ask: Identify measured pKa associated with CC(C)CC1CC(O)=C(C(=O)Nc2ccc(C3CCCCC3)cc2)C(=O)N1 (stereo unspecified)
Reply: 6.5

Ask: Identify measured pKa associated with O=C(NC1CCCCC1)C1=C(O)CC(Cc2ccccc2)NC1=O (stereo unspecified)
Reply: 6.5

Would you kindly look at the next entry?
Ask: Identify measured pKa associated with CCCCCCOc1ccc(NC(=O)C2=C(O)C(Cc3ccccc3)NC2=O)cc1 (stereo unspecified)
Reply: 3

---

# target.of.assay: Farnesyl pyrophosphate synthase (Homo sapiens)
# Sequence (P14324 whole entry): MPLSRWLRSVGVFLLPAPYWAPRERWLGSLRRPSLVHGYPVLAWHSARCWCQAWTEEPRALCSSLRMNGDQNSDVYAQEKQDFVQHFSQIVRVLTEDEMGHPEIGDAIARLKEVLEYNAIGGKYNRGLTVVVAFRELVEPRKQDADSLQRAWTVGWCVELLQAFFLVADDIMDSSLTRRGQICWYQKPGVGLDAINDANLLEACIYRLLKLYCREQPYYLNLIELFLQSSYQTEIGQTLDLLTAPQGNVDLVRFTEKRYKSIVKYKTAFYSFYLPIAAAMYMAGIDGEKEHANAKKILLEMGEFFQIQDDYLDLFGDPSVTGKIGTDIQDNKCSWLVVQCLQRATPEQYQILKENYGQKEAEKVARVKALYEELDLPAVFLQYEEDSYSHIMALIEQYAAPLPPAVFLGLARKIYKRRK
# IC50 per record follows

// solved cases for IC50 follow
Ask: Identify measured IC50 associated with CC(C)CC1NC(=O)C(C(=O)Nc2ccc(C3CCCCC3)cc2)=C1O (centres undefined)
Reply: > 50 µM

Ask: Identify measured IC50 associated with O=C(Nc1ccc(C2CCCCC2)cc1)C1=C(O)C(c2ccccc2)NC1=O (centres undefined)
Reply: > 100 µM

Ask: Identify measured IC50 associated with O=C(Nc1ccc(C2CCCCC2)cc1)C1=C(O)CC(Cc2ccccc2)NC1=O (centres undefined)
Reply: > 50 µM

Would you kindly look at the next entry?
Ask: Identify measured IC50 associated with `O=C(Nc1ccc(C2CCCCC2)cc1)C1=C(O)C[C@@H](c2ccccc2)NC1=O`
Reply: > 100 µM

---

# MIC per record follows
# Tested on: Streptococcus pneumoniae
# test.summary: Antibacterial activity against Streptococcus pneumoniae by microdilution broth method
# Type: functional
Field: numeric (µg/mL). Do not append units.

// solved cases for MIC follow
Ask: Identify measured MIC associated with O=C(Nc1ccc(-c2ccccc2)cc1)C1=C(O)C(Cc2ccccc2)OC1=O (stereo not given)
Reply: 4

Ask: Identify measured MIC associated with O=C(Nc1ccc(C2CCCCC2)cc1)C1=C(O)C(Cc2ncc[nH]2)NC1=O (stereo not given)
Reply: 8

Ask: Identify measured MIC associated with O=C(Nc1ccc(-n2ccnc2)cc1)C1=C(O)CC(Cc2ccccc2)NC1=O (stereo not given)
Reply: 32

Ask: Identify measured MIC associated with `O=C(Nc1ccc(C2CCCCC2)cc1)C1=C(O)C[C@H](c2ccccc2)NC1=O`
Reply: 4

More entries:
Ask: Identify measured MIC associated with O=C(Nc1ccc(C2CCCCC2)cc1)C1=C(O)C(c2ccccc2)NC1=O (stereo not given)
Reply: 2

---

# target.of.assay: Isoprenyl transferase (Streptococcus pneumoniae serotype 4 (strain ATCC BAA-334 / TIGR4), UniProt Q97SR4)
# test.summary: Inhibition of Streptococcus pneumoniae UPPS
Binning rule for recorded IC50: bottom range = under 200 nM, center range = from 200 nM up to 2000 nM, top range = 2000 nM and over

Ask: For the record CC(C)CC1NC(=O)C(C(=O)Nc2ccc(C3CCCCC3)cc2)=C1O (configuration not stated) , report the class its IC50 corresponds to.
Reply: center range

Ask: For the record O=C(Nc1ccc(N2CCCCC2)cc1)C1=C(O)CC(Cc2ccccc2)NC1=O (configuration not stated) , report the class its IC50 corresponds to.
Reply: bottom range

Ask: For the record O=C1NCC(CC2CCCCC2)C(O)=C1C(=O)Nc1ccc(-n2ccnc2)cc1 (configuration not stated) , report the class its IC50 corresponds to.
Reply: top range

---

# IC50 per record follows
# target.of.assay: Isoprenyl transferase (Streptococcus pneumoniae serotype 4 (strain ATCC BAA-334 / TIGR4), UniProt Q97SR4)
# Sequence (Q97SR4 whole entry): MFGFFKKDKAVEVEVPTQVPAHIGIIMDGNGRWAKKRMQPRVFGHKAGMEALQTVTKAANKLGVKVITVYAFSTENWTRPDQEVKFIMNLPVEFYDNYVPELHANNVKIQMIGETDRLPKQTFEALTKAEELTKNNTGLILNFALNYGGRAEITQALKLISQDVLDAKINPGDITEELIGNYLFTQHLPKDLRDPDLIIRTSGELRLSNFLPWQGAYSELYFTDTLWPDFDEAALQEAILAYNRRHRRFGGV
# test.summary: Inhibition of Streptococcus pneumoniae UPPS
Please provide the amount together with its unit, number first.

Ask: Identify measured IC50 associated with `O=C(Nc1ccc(C2CCCCC2)cc1)C1=C(O)CN(Cc2ccccc2)C1=O`
Reply: 300 nM

Ask: Identify measured IC50 associated with O=C(Nc1ccc(Nc2ccccc2)cc1)C1=C(O)CC(Cc2ccccc2)NC1=O (stereo not given)
Reply: 1100 nM

Ask: Identify measured IC50 associated with CCCCCCOc1ccc(NC(=O)C2=C(O)C(Cc3ccccc3)NC2=O)cc1 (stereo not given)
Reply: 19000 nM

More entries:
Ask: Identify measured IC50 associated with O=C(Nc1ccc(S(=O)(=O)c2ccccc2)cc1)C1=C(O)CC(Cc2ccccc2)NC1=O (stereo not given)
Reply: 8500 nM

Ask: Identify measured IC50 associated with O=C(Nc1ccc(-c2ccccc2)cc1)C1=C(O)C(CCc2ccccc2)NC1=O (stereo not given)
Reply: 120 nM

---

# target.of.assay: Isoprenyl transferase (Streptococcus pneumoniae serotype 4 (strain ATCC BAA-334 / TIGR4), UniProt Q97SR4)
# Sequence (Q97SR4 whole entry): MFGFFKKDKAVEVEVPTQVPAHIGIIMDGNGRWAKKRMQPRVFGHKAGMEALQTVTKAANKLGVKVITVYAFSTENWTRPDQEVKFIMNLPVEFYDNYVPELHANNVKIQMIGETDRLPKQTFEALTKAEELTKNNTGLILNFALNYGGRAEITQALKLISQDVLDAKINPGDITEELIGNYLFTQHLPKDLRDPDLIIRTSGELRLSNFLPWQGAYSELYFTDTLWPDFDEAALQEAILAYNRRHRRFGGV
# test.summary: Inhibition of Streptococcus pneumoniae UPPS
pIC50: −log10 of the molar value.
Quick rule for you: pIC50 at 6 or higher means Criterion met, lower means Criterion not met.

As a guide, the following entries are already answered.
Ask: State whether the measured pIC50 reaches 6, counting equality as reaching it, for O=C1NCC(Cc2ccccc2)C(O)=C1C(=O)Nc1ccc(-n2ccnc2)cc1 (stereo not given)
Reply: Criterion not met

Ask: State whether the measured pIC50 reaches 6, counting equality as reaching it, for O=C(Nc1ccc(C2CCCCC2)cc1)C1=C(O)CC(Cc2ccccc2)NC1=O (stereo not given)
Reply: Criterion met

Ask: State whether the measured pIC50 reaches 6, counting equality as reaching it, for O=C(Nc1ccc(C2CCCCC2)cc1)C1=C(O)C(Cc2ncc[nH]2)NC1=O (stereo not given)
Reply: Criterion not met

Ask: State whether the measured pIC50 reaches 6, counting equality as reaching it, for O=C(NC1CCCCC1)C1=C(O)CC(Cc2ccccc2)NC1=O (stereo not given)
Reply: Criterion met

Ask: State whether the measured pIC50 reaches 6, counting equality as reaching it, for O=C(Nc1ccc(C2CCCCC2)cc1)C1=C(O)C(Cc2ccccc2)OC1=O (stereo not given)
Reply: Criterion met

Ask: State whether the measured pIC50 reaches 6, counting equality as reaching it, for `O=C(Nc1ccc(C2CCCCC2)cc1)C1=C(O)C[C@@H](c2ccccc2)NC1=O`
Reply: Criterion met

Ask: State whether the measured pIC50 reaches 6, counting equality as reaching it, for O=C(Nc1ccc(-n2ccnc2)cc1)C1=C(O)CC(Cc2ccccc2)NC1=O (stereo not given)
Reply: Criterion met

Ask: State whether the measured pIC50 reaches 6, counting equality as reaching it, for O=C(Nc1ccc(C2CCCCC2)cc1)C1=C(O)C(c2ccccc2)NC1=O (stereo not given)
Reply: Criterion not met

Kindly review the next compound as well.
Ask: State whether the measured pIC50 reaches 6, counting equality as reaching it, for O=C(Nc1ccc(Oc2ccccc2)cc1)C1=C(O)CC(Cc2ccccc2)NC1=O (stereo not given)
Reply: Criterion met
